From: patent US20250111889A1

We begin with a simple list: items and their reported IC50.
system tested: MCL-1 (Homo sapiens, UniProt Q07820)
Construct: GST
Sequence (Q07820 whole entry, species assumed): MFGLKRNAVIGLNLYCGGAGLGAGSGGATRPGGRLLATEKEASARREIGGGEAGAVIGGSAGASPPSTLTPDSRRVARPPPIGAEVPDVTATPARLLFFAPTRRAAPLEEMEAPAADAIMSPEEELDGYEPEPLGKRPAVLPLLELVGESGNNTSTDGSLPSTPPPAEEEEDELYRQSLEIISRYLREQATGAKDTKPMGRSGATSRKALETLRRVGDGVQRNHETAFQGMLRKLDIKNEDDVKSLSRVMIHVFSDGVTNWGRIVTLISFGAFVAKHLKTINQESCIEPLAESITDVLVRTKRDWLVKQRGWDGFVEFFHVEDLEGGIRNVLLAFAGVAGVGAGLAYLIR
test summary: MCL-1 assay (HTRF, Anti-GST-Tb)
Type: binding
cond: 10-dose singlet, 3-fold serial dilution starting at 200 uM; HTRF signal after 60 min

smiles string: CCC(CC)[C@H]1NC(=O)CN(Cc2ccc(Cl)c(Cl)c2)C(=O)[C@H](Cc2ccc(C(C)(C)C)cc2)NC(=O)CCCCNC1=O
IC50 / µM: 12.3
//
smiles string: CN1C(=O)CN(Cc2cccc(Br)c2)C(=O)CCCCNC(=O)[C@@H](Cc2ccc(C(C)(C)C)cc2)NC(=O)[C@@H]1Cc1ccc(Cl)c(Cl)c1
IC50 / µM: 50.1
//
smiles string: Cc1ccc(C[C@@H]2NC(=O)CCCCNC(=O)CN(CCOc3c(C)cccc3C)C(=O)[C@@H](Cc3ccc(Cl)c(Cl)c3)N(C)C2=O)cc1
IC50 / µM: 18.9
